target: recombinant human TFPI (tissue factor pathway inhibitor) (human, UniProt P10646 29-304); test: cell-based or functional assay
parameter: FXa assay % of FXa alone, 2.5 nM Ab, 10 nM TFPI (%)
Give the quantity in %, number only.

Endpoint output: FXa assay % of FXa alone, 2.5 nM Ab, 10 nM TFPI of clone 3 (antibody, V domains shown) VH: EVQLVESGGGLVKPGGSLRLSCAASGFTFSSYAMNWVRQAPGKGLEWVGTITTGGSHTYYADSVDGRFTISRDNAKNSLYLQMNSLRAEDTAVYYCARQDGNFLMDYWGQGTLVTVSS VL: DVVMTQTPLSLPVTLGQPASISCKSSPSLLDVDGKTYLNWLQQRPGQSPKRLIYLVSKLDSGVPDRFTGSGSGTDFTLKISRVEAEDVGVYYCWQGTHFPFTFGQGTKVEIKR . Value? 10.8

// query: clone 1 (antibody, V domains shown) VH: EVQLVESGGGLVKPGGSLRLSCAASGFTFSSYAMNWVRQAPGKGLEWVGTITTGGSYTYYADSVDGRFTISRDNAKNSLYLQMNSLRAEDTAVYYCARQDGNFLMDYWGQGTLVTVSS VL: DVVMTQTPLSLPVTLGQPASISCKSSPSLLDSDGKTYLNWLQQRPGQSPKRLIYLVSKLDSGVPDRFTGSGSGTDFTLKISRVEAEDVGVYYCWQGTHFPFTFGQGTKVEIKR 6.3

// query: clone 10 (antibody, V domains shown) VH: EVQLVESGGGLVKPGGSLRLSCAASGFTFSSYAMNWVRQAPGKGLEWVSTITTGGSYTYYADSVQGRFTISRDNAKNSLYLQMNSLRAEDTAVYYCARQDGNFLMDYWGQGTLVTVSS VL: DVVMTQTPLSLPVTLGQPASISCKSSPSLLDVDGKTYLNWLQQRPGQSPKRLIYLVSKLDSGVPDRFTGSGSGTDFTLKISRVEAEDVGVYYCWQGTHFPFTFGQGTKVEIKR 9.6

// query: clone 1023 (antibody, V domains shown, scFv on yeast at selection; human IgG4/kappa IgG as purified) VH: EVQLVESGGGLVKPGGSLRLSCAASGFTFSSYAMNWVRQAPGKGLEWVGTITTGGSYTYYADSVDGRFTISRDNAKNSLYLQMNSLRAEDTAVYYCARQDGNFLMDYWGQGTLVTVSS VL: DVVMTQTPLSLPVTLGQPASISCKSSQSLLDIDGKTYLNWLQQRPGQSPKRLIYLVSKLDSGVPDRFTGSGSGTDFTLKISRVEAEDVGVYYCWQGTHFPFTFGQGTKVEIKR 6.7
